Numbers sourced from the CheMixHub drug solubility set.

testSummary: xn = mol fraction of the nth substance listed, in the solute-free solvent
conditionInfo: 303.15 K; x2 = 0.5
valueType: solubility (g/100 g solution)

Consider the reported solubility (g/100 g solution) for these compounds:
{"columns": ["compound", "solubility (g/100 g solution)"],
 "data": [
  ["O=CC(O)C(O)C(O)CO (configuration not stated) + CCO + CCCCCC", 0.676],
  ["Cc1nc(C)c(C)nc1C + CCCCO + CC#N", 45.7]
]}

(a) O=CC(O)C(O)C(O)CO (configuration not stated) + CO + ClCCl
(b) Cl.NC(C=O)C(O)C(O)C(O)CO (configuration not stated) + O + CCO
(c) O=CC(O)C(O)C(O)CO (configuration not stated) + CCO + ClCCl
(d) O=CC(O)C(O)C(O)CO (configuration not stated) + CC(C)O + CCCCCC
(e) Cc1nc(C)c(C)nc1C + CO + CC#N
Sort low-to-high on solubility (g/100 g solution), please. The labels, placed in the requested order, form the answer.
d, b, c, a, e
